Target or system Adenosine receptor A2a (Homo sapiens); recorded quantity pKi.
// pKi here means minus log10 of the molar concentration (mol/L)

CCC(=O)N[C@H]1C[C@@H](n2cnc3c(NCC(c4ccccc4)c4ccccc4)nc(NCCc4c[nH]cn4)nc32)[C@H](O)[C@@H]1O: 8.28
CCC(CC)CNc1nc(NCCc2cn(CC)cn2)nc2c1ncn2[C@@H]1C[C@H](n2cc(CO)cn2)[C@@H](O)[C@H]1O: 8.27
Cc1cnn([C@H]2C[C@@H](n3cnc4c(N)nc(N[C@H](CO)Cc5ccccc5)nc43)[C@H](O)[C@@H]2O)c1: 6.64

Enquiry: Jot down pKi (Adenosine receptor A2a (Homo sapiens)) of CC(C)n1cnc(CCNc2nc(NCC(c3ccccc3)c3ccccc3)c3ncn([C@@H]4C[C@H](NC(=O)CCc5ccccc5)[C@@H](O)[C@H]4O)c3n2)c1 .
Return: 5.26

Enquiry: Jot down pKi (Adenosine receptor A2a (Homo sapiens)) of CC(C)n1cnc(CCNc2nc(NCC(c3ccccc3)c3ccccc3)c3ncn([C@@H]4C[C@H](NC(=O)C(C)(C)C)[C@@H](O)[C@H]4O)c3n2)c1 .
Return: 6.42

Enquiry: Jot down pKi (Adenosine receptor A2a (Homo sapiens)) of CCC(=O)N[C@H]1C[C@@H](n2cnc3c(NC(CC)CC)nc(NCCc4cn(CC)cn4)nc32)[C@H](O)[C@@H]1O .
Return: 8.27

Enquiry: Jot down pKi (Adenosine receptor A2a (Homo sapiens)) of CC(C)n1cnc(CCNc2nc(NCC(c3ccccc3)c3ccccc3)c3ncn([C@@H]4C[C@H](NC(=O)C5CCC5)[C@@H](O)[C@H]4O)c3n2)c1 .
Return: 8.10

Enquiry: Jot down pKi (Adenosine receptor A2a (Homo sapiens)) of Nc1nc(N[C@H](CO)Cc2ccccc2)nc2c1ncn2[C@@H]1C[C@H](n2ccccc2=O)[C@@H](O)[C@H]1O .
Return: 5.26

Enquiry: Jot down pKi (Adenosine receptor A2a (Homo sapiens)) of CCC(=O)N[C@H]1C[C@@H](n2cnc3c(NCC(c4ccccc4)c4ccccc4)nc(NCCc4cn(CC(=O)O)cn4)nc32)[C@H](O)[C@@H]1O .
Return: 7.01

###

biological target: Adenosine receptor A3 (Homo sapiens, UniProt P0DMS8); assay: Agonist activity at human adenosine A3 receptor expressed in CHO cells by GTPPgammaS binding assay
Sequence (P0DMS8 whole entry): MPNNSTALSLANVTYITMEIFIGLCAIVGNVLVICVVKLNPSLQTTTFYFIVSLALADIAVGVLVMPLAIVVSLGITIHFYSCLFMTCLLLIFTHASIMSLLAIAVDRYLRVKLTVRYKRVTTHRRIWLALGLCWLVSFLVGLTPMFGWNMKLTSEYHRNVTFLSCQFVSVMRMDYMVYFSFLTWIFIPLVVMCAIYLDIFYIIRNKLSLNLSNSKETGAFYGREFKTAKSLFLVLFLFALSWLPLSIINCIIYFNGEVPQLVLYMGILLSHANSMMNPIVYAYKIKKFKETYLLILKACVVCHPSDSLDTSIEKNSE
MEASURED ATTRIBUTE: log10 of EC50 (log10 of the value in nM)
Scale: log10; quantity: EC50; unit before log: nM

CCC(=O)N[C@H]1C[C@@H](n2cnc3c(NCC(c4ccccc4)c4ccccc4)nc(NCCc4cn(C)cn4)nc32)[C@H](O)[C@@H]1O: 1.62
CCC(=O)N[C@H]1C[C@@H](n2cnc3c(NCC(c4ccccc4)c4ccccc4)nc(NCCc4cn(CC)cn4)nc32)[C@H](O)[C@@H]1O: 1.64
CCC(CC)CNc1nc(NCCc2cn(CC)cn2)nc2c1ncn2[C@@H]1C[C@H](n2cc(CO)cn2)[C@@H](O)[C@H]1O: 2.90
CCC(=O)N[C@H]1C[C@@H](n2cnc3c(NC(CC)CC)nc(NCCc4cn(C(C)C)cn4)nc32)[C@H](O)[C@@H]1O: 3.40

Enquiry: Jot down log10 of EC50 (Adenosine receptor A3 (Homo sapiens, UniProt P0DMS8)) of CC(C)n1cnc(CCNc2nc(NCC(c3ccccc3)c3ccccc3)c3ncn([C@@H]4C[C@H](NC(=O)C5CCC5)[C@@H](O)[C@H]4O)c3n2)c1 .
Return: 2.68

Enquiry: Jot down log10 of EC50 (Adenosine receptor A3 (Homo sapiens, UniProt P0DMS8)) of Cc1cnn([C@H]2C[C@@H](n3cnc4c(N)nc(N[C@H](CO)Cc5ccccc5)nc43)[C@H](O)[C@@H]2O)c1 .
Return: 2.65

Enquiry: Jot down log10 of EC50 (Adenosine receptor A3 (Homo sapiens, UniProt P0DMS8)) of CCCCC#Cc1nc(N)c2ncn([C@@H]3C[C@H](NC(=O)CC)[C@@H](O)[C@H]3O)c2n1 .
Return: 2.02
